From: patent US20240018502

Below, each entry is listed with its recorded ED50 80% cynomolgus plasma (nM), C3 cleavage, C3 ELISA.
# TARGET DESC: complement protein C3 of cynomolgus monkey plasma
MEASURED ENDPOINT: ED50 80% cynomolgus plasma (nM), C3 cleavage, C3 ELISA

| PROTEIN | RESULT |
| --- | --- |
| Q38H/I41A/D60bV/F60eR/Y60gW/F97T/ins97aE/T98G/F99L/C122S/G151N/Q175L/Q192D (protein) VVGGTDADEGEWPWQVSLHALGHGHACGASLISPNWLVSAAHCYIDVRGRRWSDPTQWTAFLGLHDQSQRSAPGVQERRLKRIISHPFFNDTEGLDYDIALLELEKPAEYSSMVRPISLPDASHVFPAGKAIWVTGWGHTQYGGTNALILQKGEIRVINQTTCENLLPQLITPRMMCVGFLSGGVDSCDGDSGGPLSSVEADGRIFQAGVVSWGDGCAQRNKPGVYTRLPLFRDWIKENTGV | 101 nM |
| Q38H/I41S/D60bT/F60eS/Y60gW/F97D/ins97aV/T98P/F99L/C122S/G151H/Q175L/Q192D (protein) VVGGTDADEGEWPWQVSLHALGHGHSCGASLISPNWLVSAAHCYIDTRGSRWSDPTQWTAFLGLHDQSQRSAPGVQERRLKRIISHPFFNDDVPLDYDIALLELEKPAEYSSMVRPISLPDASHVFPAGKAIWVTGWGHTQYGGTHALILQKGEIRVINQTTCENLLPQLITPRMMCVGFLSGGVDSCDGDSGGPLSSVEADGRIFQAGVVSWGDGCAQRNKPGVYTRLPLFRDWIKENTGV | 152 nM |
| Q38H/I41S/D60bT/F60eS/Y60gW/D96V/F97G/ins97aV/T98P/F99L/C122S/G151H/Q175L/Q192D (protein) VVGGTDADEGEWPWQVSLHALGHGHSCGASLISPNWLVSAAHCYIDTRGSRWSDPTQWTAFLGLHDQSQRSAPGVQERRLKRIISHPFFNVGVPLDYDIALLELEKPAEYSSMVRPISLPDASHVFPAGKAIWVTGWGHTQYGGTHALILQKGEIRVINQTTCENLLPQLITPRMMCVGFLSGGVDSCDGDSGGPLSSVEADGRIFQAGVVSWGDGCAQRNKPGVYTRLPLFRDWIKENTGV | 103 nM |
| Q38H/I41A/D60bV/F60eR/Y60gW/D96I/F97Y/ins97aN/T98G/F99L/C122S/G151N/Q175L/Q192D (protein) VVGGTDADEGEWPWQVSLHALGHGHACGASLISPNWLVSAAHCYIDVRGRRWSDPTQWTAFLGLHDQSQRSAPGVQERRLKRIISHPFFNIYNGLDYDIALLELEKPAEYSSMVRPISLPDASHVFPAGKAIWVTGWGHTQYGGTNALILQKGEIRVINQTTCENLLPQLITPRMMCVGFLSGGVDSCDGDSGGPLSSVEADGRIFQAGVVSWGDGCAQRNKPGVYTRLPLFRDWIKENTGV | 37 nM |
| Q38H/I41A/D60bV/F60eR/Y60gW/D96I/F97N/T98G/F99L/C122S/G151N/Q175L/Q192D (protein) VVGGTDADEGEWPWQVSLHALGHGHACGASLISPNWLVSAAHCYIDVRGRRWSDPTQWTAFLGLHDQSQRSAPGVQERRLKRIISHPFFNINGLDYDIALLELEKPAEYSSMVRPISLPDASHVFPAGKAIWVTGWGHTQYGGTNALILQKGEIRVINQTTCENLLPQLITPRMMCVGFLSGGVDSCDGDSGGPLSSVEADGRIFQAGVVSWGDGCAQRNKPGVYTRLPLFRDWIKENTGV | 58 nM |
